# System: PPARγ
# measurement-description: PPARγ mRNA expression in adipocytes (real-time PCR)
# Type: cell-based, human
# study-conditions: differentiating adipocytes transfected with oligomeric compound; Table 75
In the oligonucleotide strings, read from the 5' end, every base follows the letter of its sugar. An asterisk marks phosphorothioate; unmarked linkages are phosphodiester. Other units and linkages are bracketed, terminal groups are in braces. A string of capitals states the bases alone. e = 2'-O-(2-methoxyethyl) (MOE); [5mC] = 5-methylcytosine
Attribute: PPAR gamma mRNA

| substance | tgt | PPAR gamma mRNA |
| --- | --- | --- |
| 346910 (GCAAUCAGCUAACUACACUGCCU; all 2'-MOE, all phosphorothioate, methylation of C and T or U not given here) [compound 346910] | PPARγ | 83 percentage of untreated control (UTC) |
| 327936 (antisense eA*e[5mC]*eA*eG*e[5mC]*eT*eG*eG*eT*eT*eG*eA*eA*eG*eG*eG*eG*eA*e[5mC]*e[5mC]*eA*eA) [compound 327936] | PPARγ | 47 percentage of untreated control (UTC) |
| 327881 (antisense eA*eA*eA*eA*eG*eA*eG*eA*e[5mC]*e[5mC]*eG*eG*eT*eT*e[5mC]*eA*e[5mC]*eT*eG*eT*eG*eA) [compound 327881] | PPARγ | 98 percentage of untreated control (UTC) |

For the substance shown here, 341797 (antisense ACAAGUGCCUUCACUGCAGU; all 2'-MOE, all phosphorothioate, methylation of C and T or U not given here) [compound 341797] , give the reported PPAR gamma mRNA.
50 percentage of untreated control (UTC)

Also 328090 (antisense eA*eT*eT*eA*eA*eA*eA*eA*eG*eT*e[5mC]*e[5mC]*eT*e[5mC]*eT*eT*eG*e[5mC]*e[5mC]*e[5mC]*eA) [compound 328090] , if possible.
95 percentage of untreated control (UTC)

====

Attribute: % cells in cell cycle phase: G1
# System: A549 cells
# measurement-description: Cell cycle assay in A549 cells
# Type: cell-based, human
# study-conditions: A549 cells, 50 nM, 24 hours; relative to the untreated control cells in that phase
Kindly provide the numeric value in % only, without the unit symbol.

Take a look at these entries with their results.
| substance | value-reported |
| --- | --- |
| 338836 (antisense TCCTCGGTGGCAGAGCTCAG; all 2'-MOE, all phosphorothioate, methylation of C not given here) [compound 338836] | 113 |
| 340350 (antisense TGCTCAATAAATACCCGTTGAA; all 2'-MOE, all phosphorothioate, methylation of C not given here) [compound 340350] | 128 |
| 338637 (antisense TCAGAGCGGAGAGACACAAG; all 2'-MOE, all phosphorothioate, methylation of C not given here) [compound 338637] | 110 |

For the substance shown here, 338769 (antisense GCTTCCCAGCGGCCTATAGT; all 2'-MOE, all phosphorothioate, methylation of C not given here) [compound 338769] , give the reported % cells in cell cycle phase: G1.
114

====

Attribute: aP2 mRNA
# System: aP2
# measurement-description: aP2 mRNA expression in adipocytes (real-time PCR)
# Format: cell-based, human
# study-conditions: differentiating adipocytes transfected with oligomeric compound; Table 75
In the oligonucleotide strings, read from the 5' end, every base follows the letter of its sugar. An asterisk marks phosphorothioate; unmarked linkages are phosphodiester. Other units and linkages are bracketed, terminal groups are in braces. A string of capitals states the bases alone. e = 2'-O-(2-methoxyethyl) (MOE); [5mC] = 5-methylcytosine

Take a look at these entries with their results.
| substance | parameter | value-reported |
| --- | --- | --- |
| 341802 (antisense AGCUGCUUUUGGGAUUCCGUUG; all 2'-MOE, all phosphorothioate, methylation of C and T or U not given here) [compound 341802] | aP2 mRNA | 98 percentage of untreated control (UTC) |
| 344275 (antisense UCUAGUGGUCCUAAACAUUUCA; all 2'-MOE, all phosphorothioate, methylation of C and T or U not given here) [compound 344275] | aP2 mRNA | 36 percentage of untreated control (UTC) |
| 328125 (antisense eT*eA*eT*eG*eA*eA*eA*eT*eG*e[5mC]*e[5mC]*eA*eG*eA*eG*e[5mC]*eT*eG*e[5mC]*e[5mC]*eA) [compound 328125] | aP2 mRNA | 75 percentage of untreated control (UTC) |
| 327920 (antisense eG*eA*eG*eA*e[5mC]*e[5mC]*e[5mC]*eA*eG*eT*eA*eG*e[5mC]*e[5mC]*eA*eG*eA*eT*eG*eT*eA*eG*e[5mC]*eT) [compound 327920] | aP2 mRNA | 22 percentage of untreated control (UTC) |

Request body: readout aP2 mRNA, system aP2, query 344617 (GACGGGUGCGAUUUCUGUGUGAGA; all 2'-MOE, all phosphorothioate, methylation of C and T or U not given here) [compound 344617] . Return the value.
59 percentage of untreated control (UTC)

====

# Tested on: IGFBP-1
# measurement-description: IGFBP-1 mRNA expression in HepG2 cells
# Assay type: cell-based, human
# study-conditions: Experiment 3, basal (no insulin), HepG2 cells, 48 hours post-transfection
In the oligonucleotide strings, read from the 5' end, every base follows the letter of its sugar. An asterisk marks phosphorothioate; unmarked linkages are phosphodiester. Other units and linkages are bracketed, terminal groups are in braces. A string of capitals states the bases alone. e = 2'-O-(2-methoxyethyl) (MOE); [5mC] = 5-methylcytosine; d = 2'-deoxy (DNA)
parameter: IGFBP-1 (% UTC)
Kindly provide the numeric value in % UTC only, without the unit symbol.

Take a look at these entries with their results.
| substance | tgt | measurement-units | IGFBP-1 (% UTC) |
| --- | --- | --- | --- |
| 328765 (antisense eG*eA*e[5mC]*eA*eA*dA*d[5mC]*dT*d[5mC]*dA*dG*d[5mC]*dT*dA*dT*eA*eT*eT*eG*eT) [compound 328765] | IGFBP-1 | % UTC | 88 |
| 328691 (e[5mC]*e[5mC]*e[5mC]*e[5mC]*eA*dT*d[5mC]*dT*dT*dA*dG*d[5mC]*dA*dT*d[5mC]*eT*eA*eA*eG*eG) [compound 328691] | IGFBP-1 | % UTC | 105 |

Request body: readout IGFBP-1 (% UTC), system IGFBP-1, query 328773 (antisense eT*eA*e[5mC]*eT*eT*dT*dA*d[5mC]*dT*d[5mC]*d[5mC]*dA*dA*dG*dG*eT*eT*eT*eT*eA) [compound 328773] . Return the value.
148

====

# Tested on: BJ, B16-F10, T47D, T47Dp53 and HeLa cells
# measurement-description: Cell cycle assay (propidium iodide flow cytometry), cell line panel
# Assay type: cell-based
# study-conditions: 150 nM oligomeric compound, 4.5 μg/ml LIPOFECTIN, after 72 hours, propidium iodide flow cytometry
In the oligonucleotide strings, read from the 5' end, every base follows the letter of its sugar. An asterisk marks phosphorothioate; unmarked linkages are phosphodiester. Other units and linkages are bracketed, terminal groups are in braces. A string of capitals states the bases alone. e = 2'-O-(2-methoxyethyl) (MOE); [5mC] = 5-methylcytosine; d = 2'-deoxy (DNA)
parameter: G2/M (percentage of cells in phase of the cell cycle) (%)
Kindly provide the numeric value in % only, without the unit symbol.

| substance | value-reported |
| --- | --- |
| NNNNNNNNNNNNNNNNNNNN [ISIS 29848, reference compound] | 15.6 |
| 327889 (antisense eG*eT*eG*eG*eT*eA*eA*eT*e[5mC]*e[5mC]*e[5mC]*eT*eG*eG*e[5mC]*eA*eA*eT*eG*eT*eG*eA*eT) [compound 327889] | 14.4 |
| 328644 (eG*eA*e[5mC]*eA*eA*dG*dG*dT*dG*dG*dG*dA*dG*d[5mC]*dG*eA*eG*eT*eG*eG; antisense) [compound 328644] | 14 |
| 327878 (antisense e[5mC]*eT*eA*eG*eT*eG*eG*eT*e[5mC]*e[5mC]*eT*eA*eA*eA*e[5mC]*eA*eT*eT*eT*e[5mC]*eA*e[5mC]) [compound 327878] | 20 |
| 327919 (antisense eG*eA*eA*eA*e[5mC]*e[5mC]*e[5mC]*eA*eG*e[5mC]*eA*eG*eA*e[5mC]*eA*eA*eT*eG*eT*eA*eG*e[5mC]*eT) [compound 327919] | 15.4 |

For the substance shown here, 328423 (antisense e[5mC]*e[5mC]*eA*e[5mC]*eA*dT*dA*dT*dA*d[5mC]*dA*dT*dA*dT*dA*eT*eA*e[5mC]*eG*e[5mC]) [compound 328423] , give the reported G2/M (percentage of cells in phase of the cell cycle).
14.8

====

# System: BJ, B16-F10, T47D, T47Dp53 and HeLa cells
# measurement-description: Cell cycle assay (propidium iodide flow cytometry), cell line panel
# Type: cell-based
# study-conditions: 150 nM oligomeric compound, 4.5 μg/ml LIPOFECTIN, after 72 hours, propidium iodide flow cytometry
In the oligonucleotide strings, read from the 5' end, every base follows the letter of its sugar. An asterisk marks phosphorothioate; unmarked linkages are phosphodiester. Other units and linkages are bracketed, terminal groups are in braces. A string of capitals states the bases alone. e = 2'-O-(2-methoxyethyl) (MOE); [5mC] = 5-methylcytosine; d = 2'-deoxy (DNA)
parameter: G1 (percentage of cells in phase of the cell cycle) (%)
Kindly provide the numeric value in % only, without the unit symbol.

Take a look at these entries with their results.
| substance | value-reported |
| --- | --- |
| 327911 (antisense eG*e[5mC]*eT*eA*e[5mC]*e[5mC]*eT*eG*e[5mC]*eA*e[5mC]*eT*eG*eT*eA*eA*eG*e[5mC]*eA*e[5mC]*eT*eT*eT*eT) [compound 327911] | 49.9 |
| 327914 (antisense eG*e[5mC]*e[5mC]*e[5mC]*eT*eT*eT*eT*eA*eA*e[5mC]*eA*eT*eT*eG*e[5mC]*eA*e[5mC]*eT*eG) [compound 327914] | 55.8 |

Consider the record given below.
For the substance shown here, 328394 (eG*eT*eT*eT*eT*dT*dT*d[5mC]*dA*dA*dA*dT*d[5mC]*d[5mC]*d[5mC]*eA*eA*eA*e[5mC]*eT) [compound 328394] , give the reported G1 (percentage of cells in phase of the cell cycle).
59.5
